Tested on: HOP-92 NSCLC
Assay: NCI-60 one-dose screen, 48 h
Conditions: 10 µM unless noted
Experimental: Growth inhibition of the HOP-92 human Non-Small Cell Lung tumor cell line is measured as a screen for anti-cancer activity. Cells are grown in 96 well plates and exposed to the test compound for 48 hours. Compounds are tested at a single concentration, which is 10^-5 M for most compounds. The reported endpoint is percent growth (GI% or GIPRCNT), where numbers from 0 - 100% represent growth inhibition, and numbers from -100% - 0 represent cell death. […]
Compounds without any hit were thinned out: in the full panel of roughly 83,000, 20% have a hit. Calls of active or inactive are those of the source. Rule for the calls: active = growth percent below 10; inactive = the rest.
# valid calls are class 1 = active, class 0 = inactive; nothing else

• O=C(CC1(O)C(=O)Nc2ccc(Br)cc21)c1ccc(C(=O)NCC2CCC3(CC2)OOC2(CCCCC2)OO3)cc1 (centres undefined) = class 1
• COc1cc(/C=C/[N+](=O)[O-])cc(OC)c1 = class 0

Test call, this molecule: COC(=O)[C@@H](C)C[C@H](Cc1ccccc1)NC(=O)c1nc([C@@H](C[C@H](C(C)C)N(C)C(=O)[C@@H](NC(=O)[C@H]2CCCCN2C)C(C)C)OC(C)=O)sc1C
class 1
